- assay.target: T1, human c-Met (HGFR), full length, on the cell surface (human, UniProt P08581 25-1390)
- T1 construct: Endogenous c-Met on human tumor cell lines MKN45, NCI-H596, PC-3 and HepG2; also called hepatocyte growth factor receptor; mesenchymal-epithelial transition factor
- T1 sequence (P08581 25-1390 limits assumed): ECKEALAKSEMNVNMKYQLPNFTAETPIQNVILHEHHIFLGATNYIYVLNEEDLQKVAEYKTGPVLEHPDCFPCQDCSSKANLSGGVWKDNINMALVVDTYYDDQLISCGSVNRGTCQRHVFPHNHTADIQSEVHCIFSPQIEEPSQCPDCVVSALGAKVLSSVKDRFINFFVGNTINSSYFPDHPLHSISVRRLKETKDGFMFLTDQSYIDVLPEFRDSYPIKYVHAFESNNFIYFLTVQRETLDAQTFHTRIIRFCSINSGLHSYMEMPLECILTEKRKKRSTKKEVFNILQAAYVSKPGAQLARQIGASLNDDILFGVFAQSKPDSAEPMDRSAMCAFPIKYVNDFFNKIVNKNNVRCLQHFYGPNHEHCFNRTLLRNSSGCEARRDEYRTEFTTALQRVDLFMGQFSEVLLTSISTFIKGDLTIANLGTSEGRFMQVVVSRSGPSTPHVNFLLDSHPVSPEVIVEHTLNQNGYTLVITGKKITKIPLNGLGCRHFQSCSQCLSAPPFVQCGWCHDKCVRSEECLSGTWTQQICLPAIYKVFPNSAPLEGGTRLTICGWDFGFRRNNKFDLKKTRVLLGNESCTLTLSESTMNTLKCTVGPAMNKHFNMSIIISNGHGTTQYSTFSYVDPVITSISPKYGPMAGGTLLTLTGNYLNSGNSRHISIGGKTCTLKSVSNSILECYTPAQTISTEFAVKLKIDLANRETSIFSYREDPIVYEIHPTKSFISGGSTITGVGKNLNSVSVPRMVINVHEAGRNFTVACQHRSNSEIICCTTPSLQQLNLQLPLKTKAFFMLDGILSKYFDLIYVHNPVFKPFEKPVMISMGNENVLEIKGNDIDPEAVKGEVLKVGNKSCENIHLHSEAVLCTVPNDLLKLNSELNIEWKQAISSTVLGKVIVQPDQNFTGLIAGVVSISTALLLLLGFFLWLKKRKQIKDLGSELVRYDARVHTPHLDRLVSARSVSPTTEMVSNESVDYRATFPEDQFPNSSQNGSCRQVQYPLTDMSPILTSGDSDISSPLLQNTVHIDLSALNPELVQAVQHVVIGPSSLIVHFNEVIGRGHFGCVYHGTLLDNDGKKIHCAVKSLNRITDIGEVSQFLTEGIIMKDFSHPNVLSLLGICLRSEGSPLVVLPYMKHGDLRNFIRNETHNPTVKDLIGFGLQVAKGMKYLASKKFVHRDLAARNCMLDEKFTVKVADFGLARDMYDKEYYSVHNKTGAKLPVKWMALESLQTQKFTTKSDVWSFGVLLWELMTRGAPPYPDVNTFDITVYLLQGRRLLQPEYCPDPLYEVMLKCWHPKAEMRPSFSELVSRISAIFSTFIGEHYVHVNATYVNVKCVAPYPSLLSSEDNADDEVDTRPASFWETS
- test.name: flow cytometry, PC-3 cells, without HGF
// EC50 lookup, one value per entry

>  <binder>
mAb1a (antibody, human IgG1, kappa, V domains shown, Humanized IgG1 kappa, HC-41C, from wt/41C-chi-mAb1; also called humanized HC-41C antibody mAb1a; mAbla) VH: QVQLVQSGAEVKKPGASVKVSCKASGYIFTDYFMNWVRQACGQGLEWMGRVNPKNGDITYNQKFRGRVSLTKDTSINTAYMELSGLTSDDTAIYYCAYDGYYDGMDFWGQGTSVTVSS VL: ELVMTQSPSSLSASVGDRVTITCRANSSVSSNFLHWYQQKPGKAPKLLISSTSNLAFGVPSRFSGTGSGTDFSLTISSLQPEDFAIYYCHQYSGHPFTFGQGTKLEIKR

>  <EC50 (µg/mL)>
0.08

$$$$
>  <binder>
mAb3c (antibody, human IgG1, kappa, V domains shown, Humanized IgG1 kappa, HC-41C, from wt/41C-chi-mAb3; also called humanized HC-41C antibody mAb3c) VH: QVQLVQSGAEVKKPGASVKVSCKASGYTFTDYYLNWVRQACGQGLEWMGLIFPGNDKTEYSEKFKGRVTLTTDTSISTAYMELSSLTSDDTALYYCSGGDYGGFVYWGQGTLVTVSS VL: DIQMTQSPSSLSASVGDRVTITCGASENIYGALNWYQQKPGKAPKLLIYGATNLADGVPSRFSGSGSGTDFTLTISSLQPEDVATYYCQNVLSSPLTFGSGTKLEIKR

>  <EC50 (µg/mL)>
0.03

$$$$
>  <binder>
mAb3d (antibody, human IgG1, kappa, V domains shown, Humanized IgG1 kappa, HC-41C, from wt/41C-chi-mAb3; also called humanized HC-41C antibody mAb3d) VH: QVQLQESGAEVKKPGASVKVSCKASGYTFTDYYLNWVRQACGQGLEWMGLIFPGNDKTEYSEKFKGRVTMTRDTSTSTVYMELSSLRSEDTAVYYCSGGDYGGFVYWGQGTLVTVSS VL: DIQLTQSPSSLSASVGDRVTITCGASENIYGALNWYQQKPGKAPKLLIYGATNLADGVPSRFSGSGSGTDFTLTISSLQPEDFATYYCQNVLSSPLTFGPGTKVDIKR

>  <EC50 (µg/mL)>
0.03

$$$$
